assay: small-molecule binders of probe aLefty1, primary screen, biochemical, small-molecule microarray, 635/667 nm fluorescence (AID 1153); conditions: higher = more signal;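 note: score merges spot fluorescence with signal-to-noise ratio from the scanned slide images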
Reported composite z-score is given for each of the following compounds.
When you answer, write just the number.

Noted for `CC(C)(C)OC(=O)CC[C@@]1(C(=O)O)N=C(c2ccc(OCCCO)cc2)O[C@@H]1c1ccccc1CN=[N+]=[N-]` : its composite z-score reads 0.479

Noted for `O=C(O)[C@H](Cc1ccccc1)n1cc(-c2ccccn2)nn1` : its composite z-score reads -0.0969

Noted for `CC(C)(C)OC(=O)CC[C@]1(C(=O)N2CCOCC2)N=C(c2ccc(OCCCO)cc2)O[C@H]1c1ccccc1` : its composite z-score reads 0.0468

As a next step, examine the compound that follows.
Noted for CC1CC/C=C\[C@H]2OC34C=CCN(c5ccc6ccccc6c5)C(=O)[C@H]3N(C(CO)C(C)C)C(=O)[C@@H]4C2C(=O)O1 (some centres undefined) : its composite z-score reads 0.245

----------
experiment: binders of probe aHhip on microarray, primary screen, stem cell growth factor project, biochemical, small-molecule microarray, fluorescence 635/667 (AID 1087); details: higher = more signal;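 note: score merges spot fluorescence at 667nm with spot signal to noise ratio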
Reported composite z-score is given for each of the following molecules.
When you answer, write just the number.

Noted for `COC(=O)C(CC#Cc1ccc2c(c1)[C@]1(C(=O)N2)[C@H](C(=O)O)[C@H]2C(=O)O[C@H](c3ccccc3)[C@H](c3ccccc3)N2[C@@H]1c1ccccc1OCCO)C(=O)OC` : its composite z-score reads 0.275

Noted for `COC(=O)[C@@]1(Cc2ccc(F)cc2)[C@H]2c3cc(C(=O)N4CCCC4)n(CCF)c3C[C@H]2CN1C(=O)c1ccccc1` : its composite z-score reads 2.09

Noted for `COC(=O)[C@]1(CCS(=O)(=O)c2ccccc2)N=C(c2ccc(OCCCO)cc2)O[C@@H]1c1ccccc1CN=[N+]=[N-]` : its composite z-score reads -0.346

Noted for O=C1NC(=O)C2C1C=CC(C(O)c1ccc3c(c1)OCO3)N2Nc1ccccn1 (stereo not given) : its composite z-score reads 0.0274

Noted for `Cc1ccc(S[C@]2(C(=O)NCc3ccccc3)CC(=O)N(C(C)C)[C@@H]2c2ccc(CO)cc2I)cc1` : its composite z-score reads 0.0623

Noted for `CC(C)CN1C(=O)[C@@]2(c3ccc([N+](=O)[O-])cc3)CC(=O)N(CC34CC5CC(CC(C5)C3)C4)[C@@H]2c2ccc(CO)cc21` : its composite z-score reads -0.0994

Noted for COC1(C)CN(Cc2ccccc2Br)[C@H](/C=C/c2ccccc2)[C@H](Cc2ccccc2)O1 (stereo not given in full) : its composite z-score reads 0.0373

Noted for `COCCOC(=O)N1C(=O)[C@@]2(c3ccccc31)[C@H](c1ccc(OCCO)cc1)N1[C@H](c3ccccc3)[C@H](c3ccccc3)OC(=O)[C@H]1[C@@H]2C(=O)Nc1nc2ccccc2s1` : its composite z-score reads 0.154

Noted for `C=C(CCCC)C(=O)CC[C@@H](OC(=O)c1ccccc1-c1ccccc1C(=O)O)c1cccc(OCCO)c1` : its composite z-score reads -0.249

Noted for `COc1ccccc1CN1C(=O)c2ccccc2[C@](Cc2ccccc2I)(C(=O)NC(C)C)[C@@H]1c1ccc(CO)cc1` : its composite z-score reads 0.0373

Further cases:
Noted for `NC(=O)NCC#Cc1ccc2c(c1)[C@]1(C(=O)N2)[C@H](c2ccc(O)cc2)N2[C@H](c3ccccc3)[C@H](c3ccccc3)OC(=O)[C@H]2[C@@H]1C(=O)Nc1nc2ccccc2s1` : its composite z-score reads 0.0881

Noted for `Cc1ccc(S[C@]2(C(=O)NCC(C)C)CC(=O)N(Cc3ccccc3Cl)[C@@H]2c2ccc(CO)cc2I)cc1` : its composite z-score reads -0.0645

Noted for `CCOC(=O)C1=CC[C@@H](c2cc(Cl)ccc2Cl)N(S(=O)(=O)c2ccc(C)cc2)[C@H]1c1ccc(OC)cc1` : its composite z-score reads 0.082

Noted for CC=CC(O)C1C=CC2C(=O)N(C)C(=O)C2N1Nc1ccc([N+](=O)[O-])cc1[N+](=O)[O-] (stereo not given) : its composite z-score reads 0.312

Noted for `NCCCCCCNC(=O)[C@H]1C[C@H]2C(=O)N[C@@H](Cc3ccccc3)C(=O)N2[C@H]1c1ccc(O)cc1` : its composite z-score reads -0.196

Cited source for all entries: PubChem BioAssay
